Molecular target: T1, recombinant rat CTGF protein (R&D Systems) (rat, UniProt Q9R1E9 25-347)
T1 construct: Bought; also called rCTGF
T1 sequence: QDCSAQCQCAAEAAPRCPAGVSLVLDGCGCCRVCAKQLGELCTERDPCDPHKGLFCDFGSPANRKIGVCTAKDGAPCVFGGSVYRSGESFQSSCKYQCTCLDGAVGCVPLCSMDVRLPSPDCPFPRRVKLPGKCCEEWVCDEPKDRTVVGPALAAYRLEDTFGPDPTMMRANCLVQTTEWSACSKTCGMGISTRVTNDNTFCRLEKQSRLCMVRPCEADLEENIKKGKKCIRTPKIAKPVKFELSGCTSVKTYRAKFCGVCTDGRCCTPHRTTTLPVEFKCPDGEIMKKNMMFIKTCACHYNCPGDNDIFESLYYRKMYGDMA
Assay: SPR (Biacore)
Metric: log10 koff (log10 of the value in s⁻¹)

• lipocalin mutein of SEQ ID NO: 25 (designed binder, Parent hNGAL mutein; also called hNGAL mutein) QDSTSDLIPAPPLSKVPLQQNFQDNQFHGKWYVVGMAGNFRLREDKDPSKMGATIYELKEDKSYNVTQVQFDDKKCLYVIETFVPGSQPGEFTLGAIKSFPGFTSQLVRVVSTNYNQHAMVFFKKVYQNREVFWITLYGRTKELTSELKENFIRFSKSLGLPENHIVFPVPIDQCIDGSAWSHPQFEK = -2.89
• lipocalin mutein of SEQ ID NO: 33 (designed binder, also called hNGAL mutein; not shown: C-terminal His-tag) QDSTSDLIPAPPLSKVPLQQNFQDNQFQGKWYVVGWAGNAKLREDKQPFKMSATIYELKEDKSYDVTEVVFEQKKCHYIIKTFVPGSQPGEFTEGNYKRRPRLWSDLVRVVSTNYNQHAMVFFKKVHQNREFFWITLYGRTKELTSELKENFIRFSKSLGLPENHIVFPVPIDQCIDG = -4.20
• lipocalin mutein of SEQ ID NO: 24 (designed binder, also called hNGAL mutein) QDSTSDLIPAPPLSKVPLQQNFQDNQFQGKWYVVGVAGNAILRTDKQPAKMFATIYELKEDKSYDVTSVRFEAKSCKYTIKTFVPGSQPGEFTAGNIKSAPGQTSTLVRVVSTNYNQHAMVFFKHVSQNREIFVITLYGRTKELTSELKENFIRFSKSLGLPENHIVFPVPIDQCIDG = -4.45
• lipocalin mutein of SEQ ID NO: 31 (designed binder, also called hNGAL mutein; not shown: C-terminal His-tag) QDSTSDLIPAPPLSKVPLQQNFQDNQFQGKWYVVGWAGNVKLREDKQPQKMSATIYELKEDKSYDVTEVVFEQKKCHYIIKTFVPGSQPGEFTAGDIKSPPGYTSSLVRVVSTNYNQHAMVFFKKVSQNREFFWITLYGRTKELTSELKENFIRFSKSLGLPENHIVFPVPIDQCIDG = -3.37
• lipocalin mutein of SEQ ID NO: 3 (designed binder, Parent hNGAL mutein; also called hNGAL mutein) QDSTSDLIPAPPLSKVPLQQNFQDNQFHGKWYVVGRAGNNRLREDKDPPKMWATIYELKEDKSYNVTHVHFMTKKCRYIIDTFVPGSQPGEFTLGAIKSGPGMTSPLVRIVSTNYNQHAMVFFKWVNQNREWFTITLYGRTKELTSELKENFIRFSKSLGLPENHIVFPVPIDQCIDGSAWSHPQFEK = -1.93
• lipocalin mutein of SEQ ID NO: 10 (designed binder, also called hNGAL mutein; not shown: C-terminal His-tag) QDSTSDLIPAPPLSKVPLQQNFQDNQFQGKWYVVGLAGNAILREDKQPAKMFATIYELKEDKSYDVTSVRFEAKSCSYTIKTFVPGSQPGEFTAGNIKSAPGQTSTLVRVVSTNYNQHAMVFWKSVAGTRESFNIALYGRTKELTSELKENFIRFSKSLGLPENHIVFPVPIDQCIDG = -4.39
• lipocalin mutein of SEQ ID NO: 35 (designed binder, also called hNGAL mutein; not shown: C-terminal His-tag) QDSTSDLIPAPPLSKVPLQQNFQDNQFQGKWYVVGWAGNVKLREDKQPLKMSATIYELKEDKSYDVTEVVFEQKKCHYIIKTFVPGSQPGEFTAGDIKSPPGYTSSLVRVVSTNYNQHAMVFFKKVSQNREFFWITLYGRTKELTSELKENFIRFSKSLGLPENHIVFPVPIDQCIDG = -3.56
